molecular target: monoacylglycerol lipase (MAGL), mouse brain (Mus musculus); assay: displacement autoradiography on brain sections; conditions: unlabelled T-401 against […] [3H]T-401; hippocampus and cerebral cortex
Sequence (O35678 whole entry): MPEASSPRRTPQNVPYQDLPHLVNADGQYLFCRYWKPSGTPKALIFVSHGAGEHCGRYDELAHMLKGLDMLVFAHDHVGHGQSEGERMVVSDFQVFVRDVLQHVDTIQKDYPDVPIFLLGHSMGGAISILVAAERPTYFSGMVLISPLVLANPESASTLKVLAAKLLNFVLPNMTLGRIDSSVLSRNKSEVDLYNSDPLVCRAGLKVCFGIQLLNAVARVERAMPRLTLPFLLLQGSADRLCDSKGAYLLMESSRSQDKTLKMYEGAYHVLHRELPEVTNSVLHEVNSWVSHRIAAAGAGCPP
readoutName: pIC50
# pIC50 is unitless: minus log10 of the molar concentration; print number only

Exam item: pIC50 lookup needed for Cc1ccnc(F)c1-c1cccc(N2C[C@H](N3CCN(C(=O)c4nccs4)CC3)CC2=O)c1 [T-401] , thanks.
Marked response: 7.39

====

Molecular target: monoacylglycerol lipase (MAGL), human temporal cortex (Homo sapiens, UniProt Q99685)
Sequence (Q99685 1-303): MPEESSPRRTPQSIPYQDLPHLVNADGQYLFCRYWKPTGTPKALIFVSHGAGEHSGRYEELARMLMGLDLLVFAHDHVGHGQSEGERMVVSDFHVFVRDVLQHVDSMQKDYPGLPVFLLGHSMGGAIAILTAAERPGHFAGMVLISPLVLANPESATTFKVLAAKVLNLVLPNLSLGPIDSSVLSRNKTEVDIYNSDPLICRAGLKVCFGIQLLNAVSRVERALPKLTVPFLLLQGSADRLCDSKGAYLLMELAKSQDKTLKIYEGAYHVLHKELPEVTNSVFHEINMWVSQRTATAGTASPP
readoutName: IC50 (nM)
I only need the number, in nM, no unit after it.

Exam item: Record Cc1ccnc(F)c1-c1cccc(N2C[C@H](N3CCN(C(=O)c4nccs4)CC3)CC2=O)c1 : what is its IC50 with monoacylglycerol lipase (MAGL), human temporal cortex (Homo sapiens, UniProt Q99685)?
Marked response: 32
